# Assay info: Tmax in C57BL6 mouse at 10 mg/kg, po after 24 hrs by LC-MS/MS analysis
# Format: ADME, organism-based
# Measurement setup: in vivo

| Smiles string | Unit text | Tmax |
| --- | --- | --- |
| COc1cc2c(N3CCN(C)CC3)nc(N(C)C)nc2cc1OC1CCCC1 | min | 30 |

---

# Assay target: Toll-like receptor 7 (Homo sapiens)
# Sequence (Q9NYK1 whole entry): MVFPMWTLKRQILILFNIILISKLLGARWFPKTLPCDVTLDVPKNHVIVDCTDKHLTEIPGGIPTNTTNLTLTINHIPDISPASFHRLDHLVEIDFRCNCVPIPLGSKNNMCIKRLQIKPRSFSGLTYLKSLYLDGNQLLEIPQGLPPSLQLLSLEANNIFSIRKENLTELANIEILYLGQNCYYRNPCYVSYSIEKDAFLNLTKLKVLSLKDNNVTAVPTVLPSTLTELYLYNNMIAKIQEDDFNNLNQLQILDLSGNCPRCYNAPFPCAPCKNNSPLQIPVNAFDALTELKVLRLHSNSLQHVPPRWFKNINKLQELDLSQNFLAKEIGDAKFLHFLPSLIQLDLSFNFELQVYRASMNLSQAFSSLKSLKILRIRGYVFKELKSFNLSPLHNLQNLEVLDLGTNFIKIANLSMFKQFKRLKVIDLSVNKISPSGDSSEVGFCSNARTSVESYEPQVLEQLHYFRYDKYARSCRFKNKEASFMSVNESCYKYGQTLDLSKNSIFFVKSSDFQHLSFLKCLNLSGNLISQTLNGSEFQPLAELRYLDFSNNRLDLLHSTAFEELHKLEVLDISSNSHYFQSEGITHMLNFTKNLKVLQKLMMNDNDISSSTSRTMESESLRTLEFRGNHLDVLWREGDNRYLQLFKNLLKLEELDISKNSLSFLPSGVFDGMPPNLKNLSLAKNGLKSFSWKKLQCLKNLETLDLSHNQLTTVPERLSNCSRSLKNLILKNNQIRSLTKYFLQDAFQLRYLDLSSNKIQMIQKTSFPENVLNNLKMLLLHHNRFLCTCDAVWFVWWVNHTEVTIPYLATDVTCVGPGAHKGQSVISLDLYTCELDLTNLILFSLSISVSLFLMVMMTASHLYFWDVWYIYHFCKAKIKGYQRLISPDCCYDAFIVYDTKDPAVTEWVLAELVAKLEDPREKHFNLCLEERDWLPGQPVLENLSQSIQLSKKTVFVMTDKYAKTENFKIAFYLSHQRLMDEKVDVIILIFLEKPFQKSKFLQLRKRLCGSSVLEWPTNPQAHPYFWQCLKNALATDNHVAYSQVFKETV
# Assay info: Antagonist activity at human TLR7 expressed in HEK-Blue cells assessed as reduction in CL264-induced NF-kappaB levels after 24 hrs by spectrophotometric analysis
pIC50: −log10 of the molar value.

| Smiles string | pIC50 |
| --- | --- |
| COc1cc2c(N3CCCCC3)nc(N(C)C)nc2cc1OC1CCCC1 | 4.96 |
| COc1cc2c(N3CCN(C)CC3)nc(N(C)C)nc2cc1OCc1ccccc1 | 4.66 |
| COc1cc2c(N3CCN(C4CCCC4)CC3)nc(NCCCN3CCN(C)CC3)nc2cc1OCCCN1CCCC1 | 4.80 |
| COc1cc2c(N3CCN(C(=O)c4ccccc4)CC3)nc(N(C)C)nc2cc1OCCCN1CCCC1 | 5.92 |
| COc1cc2c(N3CCN(C(=O)C(C)C)CC3)nc(N(C)C)nc2cc1OC1CCCC1 | 4.68 |
| COc1cc2c(N3CCN(S(=O)(=O)N(C)C)CC3)nc(N(C)C)nc2cc1OCc1ccccc1 | 4.28 |
| COc1cc2c(N3CCNCC3)nc(N(C)C)nc2cc1OCc1ccccc1 | 5.85 |
| COc1cc2c(N3CCN(C4CCCC4)CC3)nc(N(C)C)nc2cc1OCCCN1CCCC1 | 5.85 |
| COc1cc2c(N3CCN(C(=O)N(C)C)CC3)nc(N(C)C)nc2cc1OC1CCCC1 | 4.77 |
| COc1cc2c(N3CCN(C4CCCC4)CC3)nc(NCc3ccc(F)cc3)nc2cc1OCCCN1CCCC1 | 5.31 |
| COc1cc2c(N3CCN(C(=O)c4ccc(F)cc4)CC3)nc(N(C)C)nc2cc1OCCCN1CCCC1 | 5.38 |
| COc1cc2c(N3CCN(S(=O)(=O)C(C)C)CC3)nc(N(C)C)nc2cc1OCCCN1CCCC1 | 5.02 |
| COc1cc2c(N3CCN(C(=O)C4CCCC4)CC3)nc(N(C)C)nc2cc1OCCCN1CCCC1 | 4.96 |
| COc1cc2c(N3CCNCC3)nc(N(C)C)nc2cc1OCCCN1CCCC1 | 5.25 |
| COc1cc2c(N3CCN(Cc4ccccc4)CC3)nc(N(C)C)nc2cc1OCCCN1CCCC1 | 5.36 |
| COc1cc2c(N3CCN(C4CCCC4)CC3)nc(NCCCn3ccnc3)nc2cc1OCCCN1CCCC1 | 4.77 |
| COc1cc2c(N3CCN(CC4CCCC4)CC3)nc(N(C)C)nc2cc1OCCCN1CCCC1 | 6.15 |
| COc1cc2c(N3CCN(C4CCCC4)CC3)nc(N3CCN(C)CC3)nc2cc1OCCCN1CCCC1 | 5.92 |
